measured-target: HCK (Homo sapiens)
Construct: purchased Reaction Biology Corporation
Sequence (P08631 whole entry): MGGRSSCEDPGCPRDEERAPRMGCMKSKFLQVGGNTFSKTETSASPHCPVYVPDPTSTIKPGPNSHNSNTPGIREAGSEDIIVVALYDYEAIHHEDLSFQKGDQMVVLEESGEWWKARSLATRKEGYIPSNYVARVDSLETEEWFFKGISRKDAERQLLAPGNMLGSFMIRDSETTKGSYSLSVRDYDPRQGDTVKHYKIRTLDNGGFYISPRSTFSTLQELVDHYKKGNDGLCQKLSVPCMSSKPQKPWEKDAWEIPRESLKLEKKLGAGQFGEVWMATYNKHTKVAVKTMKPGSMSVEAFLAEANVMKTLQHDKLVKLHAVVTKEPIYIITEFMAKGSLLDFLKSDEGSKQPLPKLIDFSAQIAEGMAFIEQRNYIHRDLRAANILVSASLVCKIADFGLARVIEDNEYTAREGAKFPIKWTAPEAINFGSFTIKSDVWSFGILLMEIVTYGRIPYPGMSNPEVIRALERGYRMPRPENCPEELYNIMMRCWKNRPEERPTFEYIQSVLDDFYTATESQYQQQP
assay-protocol: Radioisotope filter activity assay, recombinant kinase
Type: biochemical
test-settings: 10 point dose response, 10 µM ATP
Method: The effect of SAB298 on a panel of 36 recombinant kinases, was screed with the radioisotope filter binding assay employing 10 concentrations of the compound with 10 µM ATP (Reaction Biology Corporation, Malvern, PA). In addition, we tested the endogenous kinome response to SAB298 (0.05 µM, 0.5 µM and 5 µM) in lysates from two melanoma cell lines (YUSIV and YUSIK) employing the KiNativ® platform (ActivX Biosciences Inc., La Jolla, CA). […]
assay-metric: IC50 (nM)
Lab book: enter the figure in nM, no units written.

# input compound: `Nc1ncnc2c1c(-c1ccc(Oc3ccccc3)cc1)nn2C[C@@H]1SSC[C@@H]1O` ; wanted: its IC50 16.3
